Test system: LOX IMVI melanoma
Assay: NCI-60 one-dose screen, 48 h
Conditions: 10 µM
Compounds without any hit were thinned out: in the full panel of roughly 83,000, 20% have a hit. Activity calls are given as the source filed them. The calls were made as follows: active = growth percent below 10; inactive = the rest.
Pick from T (active), F (inactive) when you respond.

Sample answers from the record:
- Compound: "COc1ccc(/C=C2\\CCCC3C2=Nc2ccccc2NC3c2ccc(OC)cc2)cc1 (stereo not given)"
  Category label: "F"
- Compound: "C#CC(C)(O)[C@@H]1C[C@H](CC(=O)O)C1(C)C (stereo not given in full)"
  Category label: "F"
- Compound: "O=C1/C=C/[C@@H](O)[C@@H]2C[C@@H](O)C[C@H]2/C=C/CCC[C@H](C(F)(F)F)O1"
  Category label: "T"
- Compound: "CCc1cc(Cl)c(OC)c(C(=O)NCC2CCCN2CC)c1O (stereo not given)"
  Category label: "F"

Assay result, entry CN1CCN(c2cc3c(cc2F)c(=O)c(C(=O)O)cn3-c2ccc(F)cc2)CC1 — outcome?
F
